The values you see were collected from patent US20230263822A1.

% inhibition values by entry
System: human Factor 11 mRNA
Protocol summary: Antisense inhibition of human Factor 11 in HepG2 cells, lipofectin, 75 nM (Example 1)
Type: cell-based
Run parameters: 75 nM antisense oligonucleotide, ~24 h, relative to untreated control cells, gapmers targeted to SEQ ID NO: 1
Strand notation (5' to 3'): a small letter for the sugar, then the base; units joined by * are phosphorothioate-linked, units joined directly phosphodiester-linked; [ ] holds rarer units or linkages, { } end groups; capitals alone tell only the bases. e = 2'-O-(2-methoxyethyl) (MOE); [5mC] = 5-methylcytosine; d = 2'-deoxy (DNA)

# Substance, % inhibition / %
records = [
    ("413488 (antisense eA*e[5mC]*eA*eG*eG*dT*dG*dT*d[5mC]*dT*d[5mC]*dT*dG*dA*dG*eT*eG*eG*eG*eT) [compound 413488]", 49),
    ("413464 (antisense eG*eT*eG*eA*eG*d[5mC]*dA*dT*dT*dG*d[5mC]*dT*dT*dG*dA*eA*eA*eG*eA*eA) [compound 413464]", 42),
    ("412246 (antisense eA*eG*eA*eT*e[5mC]*dA*dT*d[5mC]*dT*dT*dA*dT*dG*dG*dG*eT*eT*eA*eT*eT) [compound 412246]", 68),
]

###

System: human Factor 11 mRNA
Protocol summary: Dose-dependent inhibition of human Factor 11 in HepG2 cells, electroporation 123.46-10,000 nM (Example 31)
Type: cell-based
Run parameters: electroporation, 3,333.33 nM, approx. 16 hours, relative to untreated control cells
Strand notation (5' to 3'): a small letter for the sugar, then the base; units joined by * are phosphorothioate-linked, units joined directly phosphodiester-linked; [ ] holds rarer units or linkages, { } end groups; capitals alone tell only the bases. e = 2'-O-(2-methoxyethyl) (MOE); [5mC] = 5-methylcytosine; d = 2'-deoxy (DNA)
Respond with fulfilled for Percent inhibition of Factor 11 mRNA at 3,333.33 nM values of 60% and above, not fulfilled for values below.

# Substance, Label value
rows = [
    ("416857 (antisense e[5mC]*eG*eG*e[5mC]*eA*dT*dT*dG*dG*dT*dG*d[5mC]*dA*d[5mC]*dA*eG*eT*eT*eT*e[5mC]) [compound 416857]", "fulfilled"),
    ("416858 (antisense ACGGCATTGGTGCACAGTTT; 5-10-5 gapmer, further chemistry not given here) [compound 416858]", "fulfilled"),
    ("445522 (antisense eG*e[5mC]*eA*e[5mC]*eA*dG*dT*dT*dT*d[5mC]*dT*dG*dG*e[5mC]*eA*eG*eG*e[5mC]) [compound 445522]", "fulfilled"),
    ("416850 (antisense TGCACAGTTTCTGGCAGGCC; 5-10-5 gapmer, further chemistry not given here) [compound 416850]", "fulfilled"),
    ("445503 (antisense eG*e[5mC]*eA*eT*eT*eG*dG*dT*dG*d[5mC]*dA*d[5mC]*dA*dG*eT*eT*eT*e[5mC]*eT*eG) [compound 445503]", "not fulfilled"),
]

###

Protocol summary: Tolerability in CD1 mice: liver function, ALT, AST, bilirubin, albumin (Example 33)
Run parameters: plasma, 50 mg/kg s.c. twice a week, 4 weeks
AST values by entry

# Substance, AST
data = [
    ("ISIS 416858: MOE gapmer, nucleobases 1275 to 1318 of SEQ ID NO: 1 (Table 8) (antisense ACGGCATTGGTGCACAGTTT; MOE gapmer, wing and gap sizes not given here)", "108 IU/L"),
    ("ISIS 416864: MOE gapmer, nucleobases 1275 to 1318 of SEQ ID NO: 1 (Table 8) (antisense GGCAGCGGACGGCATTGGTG; MOE gapmer, wing and gap sizes not given here)", "46 IU/L"),
    ("ISIS 416838: MOE gapmer, nucleobases 1018 to 1042 of SEQ ID NO: 1 (Table 6) (antisense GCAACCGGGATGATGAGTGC; MOE gapmer, wing and gap sizes not given here)", "73 IU/L"),
    ("ISIS 416850: MOE gapmer, nucleobases 1275 to 1318 of SEQ ID NO: 1 (Table 8) (antisense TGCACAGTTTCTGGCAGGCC; MOE gapmer, wing and gap sizes not given here)", "88 IU/L"),
    ("ISIS 417002: MOE gapmer, nucleobases 1275 to 1318 of SEQ ID NO: 1 (Table 8) (antisense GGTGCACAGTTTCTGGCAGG; MOE gapmer, wing and gap sizes not given here)", "87 IU/L"),
]

###

Run parameters: mouse, in vivo, sc, 50 mg/kg
Neutrophil values by entry
Observable: Neutrophil (cells/μL)

# Substance, Readout units, Observed result
records = [
    ("ISIS 416862: MOE gapmer, nucleobases 1275 to 1318 of SEQ ID NO: 1 (Table 8) (antisense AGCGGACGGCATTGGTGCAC; MOE gapmer, wing and gap sizes not given here)", "cells/μL", 1118),
    ("ISIS 416849: MOE gapmer, nucleobases 1275 to 1318 of SEQ ID NO: 1 (Table 8) (antisense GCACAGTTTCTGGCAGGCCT; MOE gapmer, wing and gap sizes not given here)", "cells/μL", 1522),
]

###

Tested on: human Factor 11 mRNA
Protocol summary: Dose-dependent inhibition of human Factor 11 in HepG2 cells, electroporation 625-20,000 nM (Example 5)
Type: cell-based
Run parameters: 10000 nM, ~16 hours
Observable: percent inhibition of human Factor 11 mRNA relative to untreated control cells (%)

# Substance, Observed result
rows = [
    ("416825 (antisense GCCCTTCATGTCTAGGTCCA; 5-10-5 gapmer, further chemistry not given here) [compound 416825]", 96),
    ("416864 (antisense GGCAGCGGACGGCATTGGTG; 5-10-5 gapmer, further chemistry not given here) [compound 416864]", 92),
    ("416858 (antisense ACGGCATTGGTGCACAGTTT; 5-10-5 gapmer, further chemistry not given here) [compound 416858]", 93),
    ("416850 (antisense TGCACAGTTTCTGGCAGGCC; 5-10-5 gapmer, further chemistry not given here) [compound 416850]", 93),
    ("417003 (antisense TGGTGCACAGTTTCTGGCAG; 2-13-5 gapmer chemistry, further chemistry not given here) [compound 417003]", 95),
    ("416838 (antisense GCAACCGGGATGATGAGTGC; 5-10-5 gapmer, further chemistry not given here) [compound 416838]", 93),
]

###

System: human Factor 11 mRNA
Protocol summary: Antisense inhibition of human Factor 11 in HepG2 cells, electroporation, 8,000 nM (Example 30)
Assay type: cell-based
Run parameters: electroporation, 8,000 nM antisense oligonucleotide
Strand notation (5' to 3'): a small letter for the sugar, then the base; units joined by * are phosphorothioate-linked, units joined directly phosphodiester-linked; [ ] holds rarer units or linkages, { } end groups; capitals alone tell only the bases. e = 2'-O-(2-methoxyethyl) (MOE); [5mC] = 5-methylcytosine; d = 2'-deoxy (DNA)
Respond with Criterion met for Percent inhibition of human Factor 11 mRNA levels values of 80% and above, Criterion not met for values below.

# Substance, Label value
measured = [
    ("445496 (antisense eT*eG*e[5mC]*eA*e[5mC]*eA*dG*dT*dT*dT*d[5mC]*dT*dG*dG*e[5mC]*eA*eG*eG*e[5mC]*e[5mC]) [compound 445496]", "Criterion met"),
    ("445501 (antisense eA*eT*eT*eG*eG*eT*dG*d[5mC]*dA*d[5mC]*dA*dG*dT*dT*eT*e[5mC]*eT*eG*eG*e[5mC]) [compound 445501]", "Criterion met"),
    ("416850 (antisense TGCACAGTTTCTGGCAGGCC; 5-10-5 gapmer, further chemistry not given here) [compound 416850]", "Criterion met"),
    ("416858 (antisense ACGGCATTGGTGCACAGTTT; 5-10-5 gapmer, further chemistry not given here) [compound 416858]", "Criterion met"),
    ("416864 (antisense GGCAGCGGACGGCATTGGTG; 5-10-5 gapmer, further chemistry not given here) [compound 416864]", "Criterion met"),
    ("412206 (antisense e[5mC]*e[5mC]*eG*eT*eG*d[5mC]*dA*dT*d[5mC]*dT*dT*dT*d[5mC]*dT*dT*eG*eG*e[5mC]*eA*eT) [compound 412206]", "Criterion met"),
    ("445524 (antisense eG*eT*eG*e[5mC]*eA*d[5mC]*dA*dG*dT*dT*dT*d[5mC]*dT*eG*eG*e[5mC]*eA*eG) [compound 445524]", "Criterion not met"),
    ("412223 (antisense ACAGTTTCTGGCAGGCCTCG; 5-10-5 MOE gapmer, further chemistry not given here) [compound 412223]", "Criterion not met"),
    ("445503 (antisense eG*e[5mC]*eA*eT*eT*eG*dG*dT*dG*d[5mC]*dA*d[5mC]*dA*dG*eT*eT*eT*e[5mC]*eT*eG) [compound 445503]", "Criterion met"),
    ("445511 (antisense eA*eG*e[5mC]*eG*eG*eA*d[5mC]*dG*dG*d[5mC]*dA*dT*dT*dG*eG*eT*eG*e[5mC]*eA*e[5mC]) [compound 445511]", "Criterion not met"),
    ("445510 (antisense eG*e[5mC]*eG*eG*eA*e[5mC]*dG*dG*d[5mC]*dA*dT*dT*dG*dG*eT*eG*e[5mC]*eA*e[5mC]*eA) [compound 445510]", "Criterion met"),
    ("445509 (antisense e[5mC]*eG*eG*eA*e[5mC]*eG*dG*d[5mC]*dA*dT*dT*dG*dG*dT*eG*e[5mC]*eA*e[5mC]*eA*eG) [compound 445509]", "Criterion met"),
    ("416865 (antisense eT*eG*eG*e[5mC]*eA*dG*d[5mC]*dG*dG*dA*d[5mC]*dG*dG*d[5mC]*dA*eT*eT*eG*eG*eT) [compound 416865]", "Criterion met"),
    ("445527 (antisense eT*eT*eG*eG*eT*dG*d[5mC]*dA*d[5mC]*dA*dG*dT*dT*eT*e[5mC]*eT*eG*eG) [compound 445527]", "Criterion not met"),
    ("445528 (antisense eA*eT*eT*eG*eG*dT*dG*d[5mC]*dA*d[5mC]*dA*dG*dT*eT*eT*e[5mC]*eT*eG) [compound 445528]", "Criterion not met"),
    ("445518 (antisense eA*eG*eT*eT*eT*d[5mC]*dT*dG*dG*d[5mC]*dA*dG*dG*e[5mC]*e[5mC]*eT*e[5mC]*eG) [compound 445518]", "Criterion not met"),
    ("416848 (antisense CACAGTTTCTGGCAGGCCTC; 5-10-5 gapmer, further chemistry not given here) [compound 416848]", "Criterion met"),
]
